The measurements presented in this section are drawn from patent US8501992B2.

pKi: −log10 of the molar value.
Notes on pKi obtained with Mcl-1 (Homo sapiens, UniProt Q07820).
Sequence (Q07820 1-327 limits assumed): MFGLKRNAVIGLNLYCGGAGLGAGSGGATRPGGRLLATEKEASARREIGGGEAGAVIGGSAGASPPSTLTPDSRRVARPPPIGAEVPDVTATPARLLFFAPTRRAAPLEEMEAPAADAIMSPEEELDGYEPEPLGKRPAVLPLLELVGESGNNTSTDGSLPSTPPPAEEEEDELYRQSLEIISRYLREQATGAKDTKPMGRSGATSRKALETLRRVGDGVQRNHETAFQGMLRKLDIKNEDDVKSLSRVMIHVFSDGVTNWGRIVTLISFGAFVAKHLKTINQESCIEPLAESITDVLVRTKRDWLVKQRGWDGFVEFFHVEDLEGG
METRIC NAME: pKi

a: CC(C)N(Cc1ccccc1)C(=O)c1ccc(CN(Cc2ccc(F)cc2)S(=O)(=O)c2cc(Cl)cc(Cl)c2O)cc1
b: O=S(=O)(c1cc(Cl)cc(Cl)c1)N(Cc1ccc(F)cc1)Cc1cccc(CN(Cc2ccc(F)cc2)S(=O)(=O)c2cc(Cl)cc(Cl)c2O)[n+]1[O-]
c: CC(C)CN(Cc1cc(Cl)cc(CN(CC(C)C)S(=O)(=O)c2cc(Cl)cc(Cl)c2O)c1)C(=O)c1ccc(SC(F)(F)F)cc1
d: CCCCNC(=O)c1ccc(CN(Cc2ccc(F)cc2)S(=O)(=O)c2cc(Cl)cc(Cl)c2O)cc1
e: O=C(NCc1cccc(CN(Cc2ccc(F)cc2)S(=O)(=O)c2cc(Cl)cc(Cl)c2O)c1)c1cc(O)nc(O)c1
### Prompt Ranking criterion: pKi, increasing numeric value. Items: as listed above. To answer, write out the labels according to the requested order.
### Response d, c, a, b, e
(d: 5.75, c: 6.01, a: 6.28, b: 7.22, e: 7.70)

I: O=C(c1ccc(CN(Cc2ccc(F)cc2)S(=O)(=O)c2cc(Cl)cc(Cl)c2O)cc1)N1CCCCC1
II: CC(C)CN(Cc1cccc(CN(Cc2ccc(-c3ccc(F)cc3)cc2)S(=O)(=O)c2cc(Cl)cc(Cl)c2O)c1)C(=O)c1nc2ccccc2s1
### Prompt Which numeric pKi is bigger, that of I or that of II ? Refer to your chosen item by its label in the answer.
### Response II
(II: 6.28, I: 5.69)

A: O=S(=O)(c1cc(Cl)cc(Cl)c1O)N(Cc1ccc(Cl)cc1)Cc1cccc(-c2ccc(Cl)cc2)n1
B: Cc1ccc(S(=O)(=O)N(Cc2cc(CN(Cc3ccc(F)cc3)S(=O)(=O)c3cc(Cl)cc(Cl)c3O)cc(Oc3ccc(F)cc3)c2)CC(C)C)cc1
### Prompt Which numeric pKi is bigger, that of A or that of B ? Refer to your chosen item by its label in the answer.
### Response B
(B: 7.40, A: 5.80)

P: CN(CCc1ccccc1)C(=O)c1ccc(CN(Cc2ccc(F)cc2)S(=O)(=O)c2cc(Cl)cc(Cl)c2O)cc1
Q: O=S(=O)(c1cc(Cl)cc(Cl)c1O)N(Cc1ccc(F)cc1)Cc1ccc(CN(Cc2ccc(F)cc2)S(=O)(=O)c2cc(Cl)cc(Cl)c2O)cc1
### Prompt Field: lower recorded pKi (choose P or Q ) Refer to your chosen item by its label in the answer.
### Response P

A: O=C(NCCCO)c1cc(Cl)c(O)c(S(=O)(=O)N(Cc2ccc(F)cc2)Cc2cccc(-c3ccc(Cl)cc3)c2)c1
B: CC(C)CCNC(=O)c1ccc(CN(Cc2ccc(F)cc2)S(=O)(=O)c2cc(Cl)cc(Cl)c2O)cc1
### Prompt Which numeric pKi is bigger, that of A or that of B ? Refer to your chosen item by its label in the answer.
### Response B

a: Cc1cccc(CN(Cc2ccc(F)cc2)S(=O)(=O)c2cc(Cl)cc(Cl)c2O)c1
b: COc1ccc(S(N)(=O)=O)cc1C(=O)NCc1cccc(CN(Cc2ccc(-c3ccccc3)cc2)S(=O)(=O)c2cc(Cl)cc(Cl)c2O)c1
c: O=C(c1ccc(N(Cc2ccc(F)cc2)S(=O)(=O)c2cc(Cl)cc(Cl)c2O)cc1)N(Cc1ccc(F)cc1)Cc1cc(Cl)cc(Cl)c1
### Prompt // smallest pKi at index 0, largest at the end To answer, write out the labels according to the requested order.
### Response a, b, c
(a: 5.77, b: 6.68, c: 7.52)

a: O=C(NCC(O)CO)c1cc(Cl)c(O)c(S(=O)(=O)N(Cc2ccc(F)cc2)Cc2cccc(-c3ccc(Cl)cc3)c2)c1 (stereo not drawn)
b: CS(=O)(=O)c1cccc(CN(Cc2cc(CNC(=O)c3cccc(Oc4ccccc4)c3)cc(Oc3ccc(F)cc3)c2)S(=O)(=O)c2cc(Cl)cc(Cl)c2O)c1
### Prompt Which numeric pKi is bigger, that of a or that of b ? Refer to your chosen item by its label in the answer.
### Response b
